System: SF-268
Experiment: NCI tumour cell line growth inhibition, 48 h
The source made the active and inactive calls. Cut-off read from the data, not from the text of the source: active = GI50 up to about 1.1 µM and inactive = higher.
Output constraint: value belongs to 1 for active, -1 for inactive

ClCCCc1ccccc1C1=NCCc2ccccc21 ... -1

Prompt: Test call for this compound, please: CN(CCc1ccccn1)C(=S)N/N=C/c1ccccn1
Completion: 1

Prompt: Then Cc1ccc(S(=O)(=O)OCOS(=O)(=O)c2ccc(C)cc2)cc1 ?
Completion: -1

Prompt: Then COC(=O)[C@@H]1C[C@@]23CCCN4CC[C@@]5(c6cccc(OC)c6N(C=O)[C@]15CC2)[C@@H]43 ?
Completion: -1

Prompt: Then CN(C)c1ccc(/N=N/c2ccccn2)cc1 ?
Completion: -1

Prompt: Then CCCOc1ccc2sc(NC(=O)c3cc([N+](=O)[O-])cc([N+](=O)[O-])c3)nc2c1 ?
Completion: -1

Prompt: Then C[C@H]1C(=O)O[C@@H]1[C@H]1COC(C)(C)O1 ?
Completion: -1

Prompt: Then Cc1nc2ccc(F)cc2c2c1CCN2c1ccc(Cl)cc1 ?
Completion: -1

---

Tested on: SNB-19
Assay: NCI tumour cell line growth inhibition, 48 h
Active and inactive are the calls of the source. Rule as the data show it: active = GI50 up to about 1.1 µM and inactive = higher.
Output constraint: value belongs to active, inactive

O=C1/C(=C/c2cccc([N+](=O)[O-])c2)Sc2scc(-c3ccc([N+](=O)[O-])cc3)[n+]21 ... inactive
CCCCN1C(=O)CC2[C@@H]3CCc4cc(OC(C)=O)ccc4C3CC[C@]2(C)C1=O (stereo not given in full) ... inactive
CCNC(=O)C(O)C1(O)CCC2[C@@H]3CCC4=CC(=O)C=C[C@]4(C)C3[C@@H](O)C[C@@]21C (stereo not given in full) ... inactive

Prompt: Test call for this molecule, please: C(=N\C12CC3CC(CC(C3)C1)C2)/C1CCCCC1
Completion: inactive

Prompt: Then CS(=O)(=O)O.[Ag] ?
Completion: inactive

Prompt: Then Cc1cc2c(=O)cc(-c3ccc(Cl)cc3)oc2c(C(=O)O)c1C ?
Completion: inactive

---

Test system: HOP-62
Assay: NCI tumour cell line growth inhibition, 48 h
The source made the active and inactive calls. Rule as the data show it: active = GI50 up to about 1.1 µM and inactive = higher.
Output constraint: value belongs to YES (active), NO (inactive)

The following compounds have reported results that may help.
COc1ccc(OC(=O)CC2Cc3cc(OC)c(OC)c(OC)c3-c3ccc(SC)c(=O)cc32)cc1 (stereo not given) ... YES
CC1CN(c2ccc(Cl)cc2)CC(C)OC(=O)O1 (stereo not given) ... NO
CC1=CC(c2ccccc2)OP1(=O)c1ccccc1 (stereo not given) ... NO
Cc1ccc(-n2cc(-c3ccc(Cl)cc3)c3c2N=CN2N=C(c4ccco4)NC32)cc1 (stereo not given) ... NO

Prompt: Test call for this compound, please: Cc1ccc(S(=O)(=O)OCOS(=O)(=O)c2ccc(C)cc2)cc1
Completion: NO

Prompt: Then N=C(c1cccs1)C1(N2CCCCC2)CCCCC1 ?
Completion: NO

Prompt: Then CN(C)Cc1cc(C(=O)/C=C/c2c(Cl)cccc2Cl)cc(CN(C)C)c1O ?
Completion: NO

Prompt: Then NC(=O)C1CCCNC1 (stereo not given) ?
Completion: NO

Prompt: Then O=C(/C=C/c1ccco1)CC(=O)/C=C/c1ccco1 ?
Completion: NO

Prompt: Then Clc1ccc(C[P+](c2ccccc2)(c2ccccc2)c2ccccc2)c(Cl)c1 ?
Completion: NO
